FYI, the data here is from the domain aggregation screens of Martell et al. (2025).

Would you mind telling me the reported soluble fraction (log2) of each entry?
Assay: soluble fraction after stress (log2 fold change); higher = more stays soluble; pooled small domains, quantitative proteomics;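 note: 20 min heating vs room temperature control held 20 min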
Details: stress: 75 degC
Kindly provide the number alone.

Given item "HMRKTLSQEAYEKIKQNLEDGVYQGYINGRQVARDLDIGFTPVREAFLQLQSEGLIRKEDNVGYFV" , the value recorded as its soluble fraction (log2) is -0.107

// sample "HMYPTPAAANRHFLDKWGHQEAYLGKVLNSRSRASEILNGKRPLSLSDLRTLRDNLGIPVDLLL" , its soluble fraction (log2) was -0.648

soluble fraction (log2) reported for this sequence "HMDDSSLFGRHTGIGFIVDDIDSGYQTLLAKGVSFEMPPTEQPWGGILALMKDPDGNIFYLD" : -0.0389

Record summary for "HMASIATLTVKALGGASDVVIRDKDGRIIWADRLPAGQSHRVFGHAPFNVAASHASRVQLSLLGKDVGRV" : reported soluble fraction (log2) = -1.37

// recorded soluble fraction (log2) for "HMTYQHQSIIHRRTRGAILTAAKELLAESGISGTNMIEIADRAQVSRASLYNHFRDKHEVFLALVES" : -0.591

Just so you know, measured soluble fraction (log2) for "HMSQDPLETYYPQWSAAVKQSNPDAEIIRDTDGKYYVEGMTKNRVAVIYENPHLVRLVNATTNVHVE" came out at 0.0377

Query "HMETYHIQMKGDPSKGIVGFSQLDMVIDKIKRLETEKGIAPYELEVLDGDTMEKYSGEEFLTMHE" yields soluble fraction (log2) of -0.0165

Data point: "HMGGKWKPIILYYININSVARYSELKRFIPSINERMLTRQLRELEEDNLIERKVYPIVPPKVEYRLTEYGK" ; soluble fraction (log2) = -0.179
